The reported numbers originate from a polymer gas permeability compilation.

value_kind: O2 permeability (Barrer)

Some molecules with recorded O2 permeability:
>  <molecule>
*N=P(*)(C)C (repeat unit)

>  <u>
Barrer

>  <measured_result>
3.53

$$$$
>  <molecule>
*CC(*)OC(=O)c1cccc(C)c1 (repeat unit)

>  <u>
Barrer

>  <measured_result>
0.496

$$$$
>  <molecule>
*c1ccc(Oc2ccc(-c3ccc(-c4ccc(Oc5ccc(N6C(=O)c7ccc(C(c8ccc9c(c8)C(=O)N(*)C9=O)(C(F)(F)F)C(F)(F)F)cc7C6=O)cc5)c(C(F)(F)F)c4)cc3)cc2C(F)(F)F)cc1 (repeat unit)

>  <u>
Barrer

>  <measured_result>
15.2

$$$$

1: *C(C(=O)OC(C)C)C(*)C(=O)OC(C)CC (repeat unit)
2: *OC(=O)c1cccc(C(=O)Oc2ccc(C(C)(C)c3ccc(O*)c(C)c3)cc2C)c1 (repeat unit)
3: *C(C(=O)OC(C)C)C(*)C(=O)OC(C)CC(C)C (repeat unit)
4: *=CC1CC(C=*)C2C(=O)N(C34CC5CC(CC(C5)C3)C4)C(=O)C12 (repeat unit)
### Prompt # ascending order, key=O2 permeability Respond with the label ranking, as requested.
### Response 2, 4, 1, 3
(2: 0.46 Barrer, 4: 1.59 Barrer, 1: 12 Barrer, 3: 45 Barrer)

I: *c1ccc2c(c1)C(=O)n1c-2nc2ccc(Oc3ccc4c(c3)nc3n4C(=O)c4ccc(C(*)(C(F)(F)F)C(F)(F)F)cc4-3)cc21 (repeat unit)
II: *C(C(=O)OC(C)CC)C(*)C(=O)OC(C)(C)C (repeat unit)
III: *Oc1c(C)cc(C(C)(C)c2cccc(C(C)(C)c3cc(C)c(Oc4ccc(S(=O)(=O)c5ccc(*)cc5)cc4)c(C)c3)c2)cc1C (repeat unit)
### Prompt Provide the items ranked by increasing O2 permeability. Would you mind listing the labels in the order requested?
### Response III, I, II

I: *c1ccc(C(c2ccc(-c3nc4cc(C(c5ccc6oc(*)nc6c5)(C(F)(F)F)C(F)(F)F)ccc4o3)cc2)(C(F)(F)F)C(F)(F)F)cc1 (repeat unit)
II: *c1cccc(C(c2cccc(N3C(=O)c4ccc(C(c5ccc6c(c5)C(=O)N(*)C6=O)(C(F)(F)F)C(F)(F)F)cc4C3=O)c2)(C(F)(F)F)C(F)(F)F)c1 (repeat unit)
### Prompt # min-compare on O2 permeability between I and II Answer with the label corresponding to your selection.
### Response II

a: *c1ccc(Oc2ccc(C(*)(c3ccccc3)C(F)(F)F)cc2)cc1 (repeat unit)
b: *C(=C(*)c1cccc(O)c1)c1ccc(C(C)(C)C)cc1 (repeat unit)
c: *c1c(C)cc(-c2cc(C)c(N3C(=O)c4cc5c(cc4C3=O)C3(C)CCC5(C)c4cc5c(cc43)C(=O)N(*)C5=O)c3ccccc23)c2ccccc12 (repeat unit)
d: *c1ccc2c(-c3c(OC(C)=O)ccc4cc(N5C(=O)c6ccc(C(=O)c7ccc8c(c7)C(=O)N(*)C8=O)cc6C5=O)ccc34)c(OC(C)=O)ccc2c1 (repeat unit)
e: *c1c(C)c(C(=O)O)c(C)c(N2C(=O)c3ccc(C(c4ccc5c(c4)C(=O)N(*)C5=O)(C(F)(F)F)C(F)(F)F)cc3C2=O)c1C (repeat unit)
### Prompt Please rank these molecules by O2 permeability in descending order. Thanks in advance for listing the labels in the requested order.
### Response c, b, e, a, d
